# tested_target: BRD4(BD1) (Homo sapiens)
# Construct: His; made in house
# protocol: BRD4 AlphaLisa binding assay (Alphascreen)
# protocol_conditions: Table 6; BRD4(BD1) 30 nM, H4-tetraacetyl peptide 200 nM; read-out: BRD4 Alphascreen IC50
# Experimental: Specifically, in a 384 well ProxiPlate BRD4(BD1) (30 nM final) was combined with peptide (200 nM final) in 40 mM HEPES (pH 7.0), 40 mM NaCl, 1 mM DTT, 0.01% (w/v) BSA, and 0.008% (w/v) Brij-35 either in the presence of DMSO (final 1.2% DMSO) or compound dilution series in DMSO. […] After three hours equilibration plates were read on an Envision instrument and IC50s calculated using a four parameter non-linear curve fit.
Listing: IC50 of selected molecules

As a guide, the following entries are already answered.
>>> result_value("Cc1noc2c1-c1ccnc(F)c1C(c1ccc(Cl)cc1)=NC2")
"> 1 µM"
>>> result_value("Cc1noc2c1-c1sc(C)c(C)c1C(c1ccncc1)=NC2CC(N)=O (stereo not drawn)")
"< 0.5 µM"
>>> result_value("Cc1noc2c1-c1sc(C)c(C)c1C(c1ccc(N)nc1)=NC2CC(N)=O (stereo not drawn)")
"< 0.5 µM"

Ask | What reported IC50 corresponds to CCNC(=O)C[C@@H]1N=C(c2ccc(Cl)cc2)c2c(sc(C)c2C)-c2c(C)noc21 on BRD4(BD1) (Homo sapiens)?
Reply | < 0.5 µM

Ask | Identify the measured IC50 of Cc1noc2c1-c1sc(C)c(C)c1C(c1ccc(Cl)cc1)=N[C@H]2Cc1ncc[nH]1 for BRD4(BD1) (Homo sapiens).
Reply | < 0.5 µM
